Molecular target: CFTR in F508del/MF-HBE cells (Homo sapiens, UniProt P13569, DEL508-508)
Construct: human bronchial epithelial (HBE) cells derived from CF subjects heterozygous for F508del and a minimal function CFTR mutation; endogenous in cells
Sequence (P13569 with tags, fused parts or gaps DEL508-508): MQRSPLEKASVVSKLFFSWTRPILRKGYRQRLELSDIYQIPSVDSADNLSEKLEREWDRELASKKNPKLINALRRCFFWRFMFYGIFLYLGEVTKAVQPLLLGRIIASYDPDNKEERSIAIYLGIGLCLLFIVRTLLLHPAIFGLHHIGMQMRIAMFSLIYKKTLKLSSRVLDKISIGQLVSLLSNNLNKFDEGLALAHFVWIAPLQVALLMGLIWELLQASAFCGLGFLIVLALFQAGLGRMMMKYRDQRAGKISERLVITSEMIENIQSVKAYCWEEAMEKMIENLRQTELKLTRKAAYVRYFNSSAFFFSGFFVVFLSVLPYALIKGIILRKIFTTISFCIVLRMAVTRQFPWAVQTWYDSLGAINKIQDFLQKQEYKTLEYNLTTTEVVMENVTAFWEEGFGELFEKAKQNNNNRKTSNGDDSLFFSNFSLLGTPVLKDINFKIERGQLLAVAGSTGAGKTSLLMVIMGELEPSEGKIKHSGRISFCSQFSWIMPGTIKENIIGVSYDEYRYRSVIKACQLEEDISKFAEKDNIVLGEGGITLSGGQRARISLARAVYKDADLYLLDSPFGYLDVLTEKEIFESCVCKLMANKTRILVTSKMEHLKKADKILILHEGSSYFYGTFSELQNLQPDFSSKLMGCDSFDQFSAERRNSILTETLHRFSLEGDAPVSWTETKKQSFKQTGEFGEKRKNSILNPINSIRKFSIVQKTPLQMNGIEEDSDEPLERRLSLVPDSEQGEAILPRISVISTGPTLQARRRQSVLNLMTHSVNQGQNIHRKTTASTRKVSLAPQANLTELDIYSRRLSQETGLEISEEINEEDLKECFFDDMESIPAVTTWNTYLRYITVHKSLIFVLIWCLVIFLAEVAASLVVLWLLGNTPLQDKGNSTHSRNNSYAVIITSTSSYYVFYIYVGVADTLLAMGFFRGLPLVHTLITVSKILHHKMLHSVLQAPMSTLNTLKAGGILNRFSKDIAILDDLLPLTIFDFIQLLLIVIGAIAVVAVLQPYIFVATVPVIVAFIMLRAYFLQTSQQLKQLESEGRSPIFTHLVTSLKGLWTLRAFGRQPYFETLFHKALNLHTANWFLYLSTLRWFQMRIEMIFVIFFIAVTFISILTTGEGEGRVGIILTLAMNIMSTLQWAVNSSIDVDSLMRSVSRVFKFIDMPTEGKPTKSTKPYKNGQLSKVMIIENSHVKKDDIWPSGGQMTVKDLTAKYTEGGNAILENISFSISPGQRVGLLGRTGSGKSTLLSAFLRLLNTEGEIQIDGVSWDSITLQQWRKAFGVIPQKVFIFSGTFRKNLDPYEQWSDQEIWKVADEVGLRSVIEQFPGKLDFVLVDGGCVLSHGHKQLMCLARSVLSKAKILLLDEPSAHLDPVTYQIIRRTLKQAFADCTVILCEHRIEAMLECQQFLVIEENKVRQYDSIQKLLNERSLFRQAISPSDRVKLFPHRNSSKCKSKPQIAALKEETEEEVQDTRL
Experiment: Ussing chamber assay of CFTR-mediated short-circuit currents (identification of potentiator compounds)
Settings: potentiator incubated 18-24 hours at 37° C. in combination with 10 μM corrector, in the presence of 20% human serum, CFTR-mediated ISC
Method: Ussing chamber experiments were performed using human bronchial epithelial (HBE) cells derived from CF subjects heterozygous for F508del and a minimal function CFTR mutation (F508del/MF-HBE) and cultured as previously described (Neuberger T, Burton B, Clark H, Van Goor F; Methods Mol. Biol. 2011:741:39-54). […] The activity of the CFTR potentiator compounds on the CFTR-mediated ISC was determined in Ussing chamber studies as described above. […]
pEC50: −log10 of the molar value.
Listing: pEC50 of selected compounds
assayReadout: pEC50

Nc1cc(C(F)(F)F)c2nc1-c1nnc(o1)C(O)(C(F)(F)F)CCCCNC2=O (single isomer, unassigned) [Compound 250]    < 6.00
CC1(C)CCCC[C@](O)(C(F)(F)F)C2=NN=C(O2)c2nc(c(C(F)(F)F)cc2N)C(=O)C1 [Compound 47]    > 6.30
CC(C)n1cc(CN2CCCCC[C@](O)(C(F)(F)F)C3=NN=C(O3)c3nc(c(C(F)(F)F)cc3N)C2=O)cn1 [Compound 128]    > 6.30
Nc1cc(C(F)(F)F)c2nc1-c1nnc(o1)C(O)(C(F)(F)F)CCCCN(Cc1ccc(OC(F)(F)F)cc1)C2=O (single isomer, unassigned) [Compound 234]    > 6.30
Nc1cc(C(F)(F)F)c2nc1-c1nnc(o1)[C@](O)(C(F)(F)F)CCCC(F)(F)CCC2=O [Compound 39]    6.00 to 6.30
CC1(C)CCCCC[C@@](O)(C(F)(F)F)C2=NN=C(O2)c2nc(c(C(F)(F)F)cc2N)C1=O [Compound 46]    > 6.30
Nc1cc(C(F)(F)F)c2nc1-c1nnc(o1)[C@@](O)(C(F)(F)F)CCC(F)(F)CCCC2=O [Compound 40]    > 6.30

----------
Biological target: CFTR in F508del/MF-HBE cells (Homo sapiens, UniProt P13569, DEL508-508)
Construct: human bronchial epithelial (HBE) cells derived from CF subjects heterozygous for F508del and a minimal function CFTR mutation; endogenous in cells
Assay: Ussing chamber assay of CFTR-mediated short-circuit currents (identification of potentiator compounds)
Conditions: potentiator incubated 18-24 hours at 37° C. in combination with 10 μM corrector, in the presence of 20% human serum, CFTR-mediated ISC
pEC50: −log10 of the molar value.
assayReadout: pEC50

Nc1cc(C(F)(F)F)c2nc1-c1nnc(o1)[C@@](O)(C(F)(F)F)CCCCCN(C1CCOCC1)C2=O    > 6.30
Nc1cc(C(F)(F)F)c2nc1-c1nnc(o1)[C@@](O)(C(F)(F)F)CCCCCN(Cc1ccc(C3CC3)cc1)C2=O    > 6.30
Nc1cc(C(F)(F)F)c2nc1-c1nnc(o1)C(O)(C(F)(F)F)c1cc(ccc1F)C=CCCC2=O (single isomer, unassigned) [Compound 60]    > 6.30
Nc1cc(C(F)(F)F)c2nc1-c1nnc(o1)[C@@](O)(C(F)(F)F)CCCCCN([C@H]1CC[C@@H](C(F)(F)F)CC1)C2=O    > 6.30
Cn1cc(N2CCCCC[C@](O)(C(F)(F)F)C3=NN=C(O3)c3nc(c(C(F)(F)F)cc3N)C2=O)cn1    > 6.30
Nc1cc(C(F)(F)F)c2nc1-c1nnc(o1)[C@@](O)(C(F)(F)F)CCCC(F)(F)CCC2=O    > 6.30
COc1cc(F)ccc1CN1CCCCC[C@](O)(C(F)(F)F)C2=NN=C(O2)c2nc(c(C(F)(F)F)cc2N)C1=O    > 6.30
